Every entry's value here was drawn from patent US20080234262A1.

# assayed_target: PI3K (Homo sapiens, UniProt P42336)
# Sequence (P42336 whole entry): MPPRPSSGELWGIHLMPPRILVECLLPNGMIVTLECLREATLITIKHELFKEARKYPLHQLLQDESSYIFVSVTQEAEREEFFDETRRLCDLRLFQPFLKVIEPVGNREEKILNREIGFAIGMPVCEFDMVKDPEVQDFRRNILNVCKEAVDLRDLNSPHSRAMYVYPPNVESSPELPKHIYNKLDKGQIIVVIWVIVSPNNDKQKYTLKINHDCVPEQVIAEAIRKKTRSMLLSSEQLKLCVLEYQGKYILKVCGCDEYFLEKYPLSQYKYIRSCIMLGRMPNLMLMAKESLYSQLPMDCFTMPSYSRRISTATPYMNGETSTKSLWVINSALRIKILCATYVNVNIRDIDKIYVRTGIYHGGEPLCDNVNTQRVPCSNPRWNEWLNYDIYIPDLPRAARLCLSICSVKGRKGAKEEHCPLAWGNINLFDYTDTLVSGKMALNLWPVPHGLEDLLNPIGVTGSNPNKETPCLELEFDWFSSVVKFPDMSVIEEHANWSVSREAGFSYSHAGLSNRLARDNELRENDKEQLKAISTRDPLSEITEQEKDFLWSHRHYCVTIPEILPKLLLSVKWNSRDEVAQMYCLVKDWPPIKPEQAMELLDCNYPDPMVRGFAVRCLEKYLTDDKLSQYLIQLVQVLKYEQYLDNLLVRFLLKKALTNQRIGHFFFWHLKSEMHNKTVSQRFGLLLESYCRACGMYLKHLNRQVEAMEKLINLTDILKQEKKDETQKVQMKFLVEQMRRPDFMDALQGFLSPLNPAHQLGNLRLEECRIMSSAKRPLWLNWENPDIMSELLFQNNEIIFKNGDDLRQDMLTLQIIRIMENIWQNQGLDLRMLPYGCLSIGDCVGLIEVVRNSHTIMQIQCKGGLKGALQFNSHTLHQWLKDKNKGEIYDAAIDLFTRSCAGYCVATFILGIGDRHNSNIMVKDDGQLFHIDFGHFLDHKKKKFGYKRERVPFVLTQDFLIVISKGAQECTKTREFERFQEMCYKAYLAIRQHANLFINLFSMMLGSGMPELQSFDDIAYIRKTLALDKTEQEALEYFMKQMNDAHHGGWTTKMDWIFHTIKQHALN
# Sequence (P27986 whole entry partner): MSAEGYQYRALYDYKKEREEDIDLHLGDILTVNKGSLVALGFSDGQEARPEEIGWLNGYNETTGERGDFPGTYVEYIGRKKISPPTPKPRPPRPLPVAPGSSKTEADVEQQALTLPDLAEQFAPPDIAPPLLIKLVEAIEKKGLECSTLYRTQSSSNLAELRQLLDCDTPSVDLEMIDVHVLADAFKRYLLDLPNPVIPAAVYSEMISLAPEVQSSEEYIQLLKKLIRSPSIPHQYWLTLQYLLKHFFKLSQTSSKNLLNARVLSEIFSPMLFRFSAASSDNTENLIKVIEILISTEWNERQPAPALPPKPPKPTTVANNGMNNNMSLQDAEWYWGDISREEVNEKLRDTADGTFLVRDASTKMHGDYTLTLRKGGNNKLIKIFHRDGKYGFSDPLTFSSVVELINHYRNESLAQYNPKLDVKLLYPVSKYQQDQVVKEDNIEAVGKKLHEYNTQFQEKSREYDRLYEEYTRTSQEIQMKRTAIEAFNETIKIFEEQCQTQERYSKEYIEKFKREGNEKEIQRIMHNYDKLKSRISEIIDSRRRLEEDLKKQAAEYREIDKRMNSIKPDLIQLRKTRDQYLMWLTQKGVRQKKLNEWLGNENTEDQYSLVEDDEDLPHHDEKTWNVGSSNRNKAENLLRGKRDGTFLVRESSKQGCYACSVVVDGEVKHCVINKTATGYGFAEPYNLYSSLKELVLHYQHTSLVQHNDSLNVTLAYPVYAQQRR
# procedure_text: Fluorescence polarization assay for PI3K;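 note: PI3K kinase reaction on PIP2 with ATP, 30-60 min, product sensed by GST-GRP with red probe in fluorescence polarization (mP), controls without enzyme and at zero time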
# Type: biochemical
# applied_conditions: PI3Kα; read-out: PI3Kα IC50
pIC50: −log10 of the molar value.
assay_metric: pIC50

P. c1cncc(CN2CCC(n3ncc4c(N5CCOCC5)nc(-c5ccc6c(c5)CCN6)nc43)CC2)c1
Q. CCNC(=O)Nc1ccc(-c2nc(N3CCOCC3)c3cnn(C4CCN(C(=O)OCC)CC4)c3n2)cc1
IN: Select the item whose pIC50 value is smaller, choosing between P and Q . Identify your selection by its label.
OUT: P
(P: 5.83, Q: 6.15)

A. CNC(=O)Nc1ccc(-c2nc(N3CCOCC3)c3cnn(C4CCN(Cc5cccnc5)CC4)c3n2)cc1F [Compound 597]
B. CC(C)(C)C(=O)Nc1ccc(-c2nc(N3CCOCC3)c3cnn(C4CCN(Cc5ccccc5)CC4)c3n2)cc1
IN: Of A and B , which carries the smaller reported pIC50 figure? To answer, give the label that identifies your chosen option.
OUT: B
(B: 5.11, A: 6.61)

a. CNCCNC(=O)Nc1ccc(-c2nc(N3CCOCC3)c3cnn(C4CCN(Cc5cccnc5)CC4)c3n2)cc1 [Compound 589]
b. O=C(NCCF)Nc1ccc(-c2nc(N3CCOCC3)c3cnn(C4CCN(C(=O)c5ccccc5)CC4)c3n2)cc1 [Compound 625]
IN: Field: entry with larger pIC50 (options a / b ). Record your answer as the label of the chosen record.
OUT: a
(a: 7.54, b: 6.34)
